Tested on: M14 melanoma
Assay notes: NCI-60 one-dose screen, 48 h
Measurement setup: 10 µM unless noted
This is part of a sample that, as a whole, favours compounds with a hit. Of some 83,000 tested, about 20% had one in any assay. Activity calls are given as the source filed them. How the source made its calls: active means growth percent below 10; inactive means the rest.
Labels: T (active), F (inactive)

compound="CC(=O)N1N=C(c2ccc(C(F)(F)F)c(F)c2)CC1c1[nH]c(C)c(C(=O)NCC(F)(F)F)c1C (configuration not stated)" discrete_label=F
compound=OB1OCc2cc(/C=C/c3cccc(C(F)(F)F)c3)ccc21 discrete_label=T
compound=CCCCNCCCCCNc1cc(OC)cc2cccnc12 discrete_label=F
compound=Clc1ccc2c(c1)C(c1c[nH]c3ccccc13)(c1c[nH]c3ccccc13)CCO2 discrete_label=F
compound=O=C(c1ccccc1)c1ccc(C2CCCCC2)cc1 discrete_label=F
compound=CCCCCCCCCCCCCCCCCCOc1ccccc1CC(=O)OCC[N+](C)(C)C discrete_label=T
compound=O=C(CN1CCCCC1)Nc1nc(-c2cc3ccccc3oc2=O)cs1 discrete_label=F

Cited source for all entries: PubChem BioAssay (NCI)
